This listing pairs molecules with measured pIC50.
target: Mitogen-activated protein kinase kinase kinase 11 (Homo sapiens); experiment: Inhibition of Mixed lineage kinase 3 (MLK3)
Sequence (Q16584 whole entry): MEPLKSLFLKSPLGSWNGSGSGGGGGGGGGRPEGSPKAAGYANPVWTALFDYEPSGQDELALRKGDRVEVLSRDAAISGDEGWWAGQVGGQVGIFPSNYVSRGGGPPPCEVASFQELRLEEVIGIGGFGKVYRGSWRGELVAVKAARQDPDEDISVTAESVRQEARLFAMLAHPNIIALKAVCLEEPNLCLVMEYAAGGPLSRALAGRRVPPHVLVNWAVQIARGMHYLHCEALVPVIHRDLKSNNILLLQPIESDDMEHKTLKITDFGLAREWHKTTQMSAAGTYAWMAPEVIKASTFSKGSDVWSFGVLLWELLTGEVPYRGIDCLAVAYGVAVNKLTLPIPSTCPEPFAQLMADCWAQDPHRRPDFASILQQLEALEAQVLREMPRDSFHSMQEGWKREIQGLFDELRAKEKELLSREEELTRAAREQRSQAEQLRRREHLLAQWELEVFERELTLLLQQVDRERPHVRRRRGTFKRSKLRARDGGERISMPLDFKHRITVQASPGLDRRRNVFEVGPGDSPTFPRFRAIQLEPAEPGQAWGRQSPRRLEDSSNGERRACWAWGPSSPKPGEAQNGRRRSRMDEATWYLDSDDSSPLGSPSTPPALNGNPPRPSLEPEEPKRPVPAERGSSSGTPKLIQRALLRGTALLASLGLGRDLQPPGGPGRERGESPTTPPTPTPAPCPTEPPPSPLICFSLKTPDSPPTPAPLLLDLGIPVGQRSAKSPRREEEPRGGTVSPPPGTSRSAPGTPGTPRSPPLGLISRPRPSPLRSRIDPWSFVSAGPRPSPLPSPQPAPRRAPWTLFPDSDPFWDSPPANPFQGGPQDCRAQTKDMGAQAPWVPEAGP
pIC50: −log10 of the molar value.
Value kind: pIC50

> print(dat)
                                        smi  result.value
1  COC(=O)[C@@]1(O)C[C@H]2O[C@]1(C)n1c3ccc(CO)cc3c3c4c(c5c6cc(CO)ccc6n2c5c31)C(=O)NC4          7.96
2  C=CCSCc1ccc2c(c1)c1c3c(c4c5cc(CSCC=C)ccc5n5c4c1n2[C@H]1C[C@](O)(C(=O)OC)[C@]5(C)O1)CNC3=O          7.03
3  CCOCc1ccc2c(c1)c1c3c(c4c5cc(COCC)ccc5n5c4c1n2[C@H]1C[C@](O)(C(=O)OC)[C@]5(C)O1)CNC3=O          7.96
